All figures here come from patent US20210115124A1.

Molecular target: T1, human VEGF (hVEGF) (human, UniProt P15692 181-395)
T1 construct: also called VEGF-A
T1 sequence: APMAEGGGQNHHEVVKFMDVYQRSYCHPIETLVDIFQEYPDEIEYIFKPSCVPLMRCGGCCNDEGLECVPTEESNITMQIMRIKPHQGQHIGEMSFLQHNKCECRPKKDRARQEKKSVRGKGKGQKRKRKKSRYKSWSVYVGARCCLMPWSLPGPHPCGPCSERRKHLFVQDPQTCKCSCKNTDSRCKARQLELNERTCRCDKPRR
Test: SPR single-cycle;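 note: fab variants injected over hVEGF immobilized on a CM5 chip (Biacore T200), threefold dilution series from 0.02 to 50 nM, kinetics fitted with a 1:1 Langmuir model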
The threshold is inclusive: Fold change (relative to G6.31) of exactly 1 fold counts as Yes; values below receive No.

Worked cases, answers included:
| binder | class |
| --- | --- |
| G6.31 HC-G65E (Fab, name in Kabat numbering, V domains shown, Fab) VH: EVQLVESGGGLVQPGGSLRLSCAASGFTISDYWIHWVRQAPGKGLEWVAGITPAGGYTYYADSVKERFTISADTSKNTAYLQMNSLRAEDTAVYYCARFVFFLPYAMDYWGQGTLVTVSS VL: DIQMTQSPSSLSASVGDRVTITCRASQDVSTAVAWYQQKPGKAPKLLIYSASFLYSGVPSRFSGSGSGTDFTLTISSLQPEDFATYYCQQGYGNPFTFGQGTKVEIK | Yes |
| G6.31 LC-G57E (Fab, V domains shown, Fab) VH: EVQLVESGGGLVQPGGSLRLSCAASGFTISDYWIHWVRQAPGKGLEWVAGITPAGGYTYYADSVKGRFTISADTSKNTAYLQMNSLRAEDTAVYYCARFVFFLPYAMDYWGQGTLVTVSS VL: DIQMTQSPSSLSASVGDRVTITCRASQDVSTAVAWYQQKPGKAPKLLIYSASFLYSEVPSRFSGSGSGTDFTLTISSLQPEDFATYYCQQGYGNPFTFGQGTKVEIK | Yes |

Prompt line: Given G6.31 HC-T28E (Fab, name in Kabat numbering, V domains shown, Fab) VH: EVQLVESGGGLVQPGGSLRLSCAASGFEISDYWIHWVRQAPGKGLEWVAGITPAGGYTYYADSVKGRFTISADTSKNTAYLQMNSLRAEDTAVYYCARFVFFLPYAMDYWGQGTLVTVSS VL: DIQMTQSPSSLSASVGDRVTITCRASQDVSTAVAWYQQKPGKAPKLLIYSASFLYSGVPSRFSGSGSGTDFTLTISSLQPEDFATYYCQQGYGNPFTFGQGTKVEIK , state whether its Fold change (relative to G6.31) is at least 1 fold.
Response line: Yes

Prompt line: Given G6.31 HC-S74E (Fab, name in Kabat numbering, V domains shown, Fab) VH: EVQLVESGGGLVQPGGSLRLSCAASGFTISDYWIHWVRQAPGKGLEWVAGITPAGGYTYYADSVKGRFTISADTEKNTAYLQMNSLRAEDTAVYYCARFVFFLPYAMDYWGQGTLVTVSS VL: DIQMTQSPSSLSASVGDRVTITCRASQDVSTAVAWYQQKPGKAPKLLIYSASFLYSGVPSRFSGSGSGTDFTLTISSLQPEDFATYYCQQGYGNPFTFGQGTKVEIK , state whether its Fold change (relative to G6.31) is at least 1 fold.
Response line: No
